This collection of values is drawn from patent US4987258A.

test system: Salmonella typhimurium (strains TA 98, TA 100, TA 1535, TA 1537, TA 1538); assay: Ames mutagenicity test with Salmonella typhimurium in the absence and presence of S-9-mix; format: cell-based
Measured parameter: Ames test

>>> result("CCCOc1cc(-c2ccc(N)c(OCCC)c2)ccc1N [Example 8]")
"negative"
>>> result("CCCCc1cc(-c2ccc(N)c(CCCC)c2)ccc1N [Example 5]")
"negative"
>>> result("CCC(C)c1cc(-c2ccc(N)c(C(C)CC)c2)ccc1N (stereo not shown)")
"negative"
>>> result("CCC(C)Oc1cc(-c2ccc(N)c(OC(C)CC)c2)ccc1N (stereo not shown) [Example 10]")
"negative"
>>> result("CC(C)Oc1cc(-c2ccc(N)c(OC(C)C)c2)ccc1N [Example 9]")
"negative"
>>> result("CC(C)Cc1cc(-c2ccc(N)c(CC(C)C)c2)ccc1N [Example 6]")
"negative"
>>> result("CCCc1cc(-c2ccc(N)c(CCC)c2)ccc1N [Example 4]")
"negative"
